Source of measurements: PubChem BioAssay AID2013

# TARGET_OR_SYSTEM: G-protein coupled receptor 55 (Homo sapiens) (UniProt Q9Y2T6)
# Sequence (Q9Y2T6 whole entry, looked up): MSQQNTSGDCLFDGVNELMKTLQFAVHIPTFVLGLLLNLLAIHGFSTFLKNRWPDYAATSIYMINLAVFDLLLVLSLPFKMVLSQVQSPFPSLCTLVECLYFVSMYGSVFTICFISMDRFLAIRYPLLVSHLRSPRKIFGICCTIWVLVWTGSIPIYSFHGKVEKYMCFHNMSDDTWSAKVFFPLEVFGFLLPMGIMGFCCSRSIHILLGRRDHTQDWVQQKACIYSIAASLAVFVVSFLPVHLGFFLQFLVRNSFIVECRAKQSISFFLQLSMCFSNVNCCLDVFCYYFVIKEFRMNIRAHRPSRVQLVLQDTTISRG
# ASSAY: GPR55 antagonists blocking LPI-driven arrestin recruitment, primary screen, imaging, U2OS, beta-arrestin-GFP, LPI agonist (AID 2013);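 further: U2OS cells stably carrying GPR55 and arrestin-GFP stimulated by 5 µM LPI near EC80; imaged beta-arrestin-GFP aggregate spots per cell after agonist stimulation; plate controls were LPI-stimulated DMSO wells for no effect and DMSO wells without LPI for full effect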
# CONDITION: U2OS GPR55 beta-arrestin-GFP translocation imaging, LPI antagonism; at 10 µM; active compounds read high
Hit rate of the full screen: of about 290,000 compounds, about 370 (0.13%) were called active. This is one part of a sample in which actives are shown more often than they occur. Entries with a potency or affinity are not part of this list.

{"COMPOUND": "Cc1sc(NC(=O)c2cc(-c3ccc(Cl)cc3)nc3ccccc23)c(C(N)=O)c1C", "MEASURE_UNIT": "%", "inhibition": 28.7}
{"COMPOUND": "COc1ccc2nc(NC(=O)CN(c3ccc(C)cc3)S(=O)(=O)c3c(C)nn(C)c3C)sc2c1", "MEASURE_UNIT": "%", "inhibition": 22.1}
{"COMPOUND": "COc1ccc2cc(C(=O)CS(=O)(=O)c3ccccc3)c(=O)oc2c1", "MEASURE_UNIT": "%", "inhibition": -4.7}
{"COMPOUND": "COc1ccc(N(CC(=O)Nc2cc(C)ccc2C)S(=O)(=O)c2c(C)nn(C)c2C)cc1", "MEASURE_UNIT": "%", "inhibition": 10}
{"COMPOUND": "Cc1ccc(OCC(=O)N/N=C/C=C/c2ccco2)cc1C", "MEASURE_UNIT": "%", "inhibition": -3.3}
{"COMPOUND": "O=C(CN(C(=O)CCC(=O)Nc1nccs1)c1ccc(F)cc1)NCC1CCCO1 (stereo unspecified)", "MEASURE_UNIT": "%", "inhibition": 15}
{"COMPOUND": "CCCCCn1c(=O)[nH]c2cc(C(=O)NCc3ccc4c(c3)OCO4)ccc2c1=O", "MEASURE_UNIT": "%", "inhibition": 31.9}
{"COMPOUND": "CCOC(=O)C1=C(C)NC(C)=C(C(=O)OC)C1c1cccc([N+](=O)[O-])c1 (stereo unspecified)", "MEASURE_UNIT": "%", "inhibition": 14.8}
{"COMPOUND": "CC(C)C(=O)Nc1ccc2c(c1)nc(CCN1CCCCC1)n2C", "MEASURE_UNIT": "%", "inhibition": -5.6}
{"COMPOUND": "CCOC(=O)c1c(-c2ccccc2)oc2ccc(O)c(CN3CCOCC3)c12", "MEASURE_UNIT": "%", "inhibition": 34.5}
{"COMPOUND": "CCOC(=O)C1=C(O)C(=O)N(c2ccccc2)C1c1cccc([N+](=O)[O-])c1 (stereo unspecified)", "MEASURE_UNIT": "%", "inhibition": -3.6}
{"COMPOUND": "COc1cc(-c2cc(C(=O)Nc3ccccc3N3CCOCC3)c3ccccc3n2)cc(OC)c1OC", "MEASURE_UNIT": "%", "inhibition": 17.1}
{"COMPOUND": "COc1ccc(N=Nc2nc(-c3ccccc3)c(-c3ccccc3)[nH]2)cc1", "MEASURE_UNIT": "%", "inhibition": 19}
{"COMPOUND": "COC(=O)c1cccc(S(=O)(=O)N2CCC(c3nc4ccccc4o3)CC2)c1", "MEASURE_UNIT": "%", "inhibition": 4.8}
{"COMPOUND": "Oc1ccccc1N=Nc1nc(-c2ccccc2)c(-c2ccccc2)[nH]1", "MEASURE_UNIT": "%", "inhibition": 15.7}
{"COMPOUND": "Cc1c(O)nc2sc3ccccc3n2c1=O", "MEASURE_UNIT": "%", "inhibition": -0.7}
{"COMPOUND": "COCCNC(=O)C(OC(=O)CC1Sc2ccccc2NC1=O)c1ccncc1 (stereo unspecified)", "MEASURE_UNIT": "%", "inhibition": 1.2}
{"COMPOUND": "Cc1cc(F)ccc1NC(=O)C1CCN(S(=O)(=O)c2ccc3c(c2)CCCC(=O)N3)CC1", "MEASURE_UNIT": "%", "inhibition": 8.1}
{"COMPOUND": "COc1ccc(C2c3ccc(O)cc3Oc3ncn4nc(-c5ccccn5)nc4c32)cc1OC (stereo unspecified)", "MEASURE_UNIT": "%", "inhibition": 14.6}
{"COMPOUND": "CCOC(=O)c1c(-c2ccccc2)oc2ccc(O)c(CN3CCCC3)c12", "MEASURE_UNIT": "%", "inhibition": -1.6}
{"COMPOUND": "O=C(NCC(=O)N1CCN(S(=O)(=O)/C=C/c2ccccc2)CC1)c1ccc(Cl)cc1", "MEASURE_UNIT": "%", "inhibition": 10.1}

---

Reported inhibition by item:
# TARGET_OR_SYSTEM: G-protein coupled receptor 55 (Homo sapiens)
# ASSAY: GPR55 antagonists blocking LPI-driven arrestin recruitment, primary screen, imaging, U2OS, beta-arrestin-GFP, LPI agonist (AID 2013);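 further: U2OS cells stably carrying GPR55 and arrestin-GFP stimulated by 5 µM LPI near EC80; imaged beta-arrestin-GFP aggregate spots per cell after agonist stimulation; plate controls were LPI-stimulated DMSO wells for no effect and DMSO wells without LPI for full effect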
# CONDITION: U2OS GPR55 beta-arrestin-GFP translocation imaging, LPI antagonism; at 10 µM; active compounds read high
Hit rate of the full screen: of about 290,000 compounds, about 370 (0.13%) were called active. This is one part of a sample in which actives are shown more often than they occur. Potency and affinity values are given separately.
ASSAY_METRIC: inhibition (%)

{"COMPOUND": "Cc1ccc(NS(=O)(=O)c2cccc(C(=O)O)c2)cc1S(=O)(=O)N1CCCCC1", "MEASURE_UNIT": "%", "RESULT_NUMBER": 5.9}
{"COMPOUND": "CCN(C(=O)CSc1nc(-c2ccccc2)c(-c2ccccc2)[nH]1)C1CCS(=O)(=O)C1 (stereo not given)", "MEASURE_UNIT": "%", "RESULT_NUMBER": 15.5}
{"COMPOUND": "Cc1cccc(C)c1-n1cccc1/C=C1\\SC(=S)N(c2cccc(C(=O)O)c2)C1=O", "MEASURE_UNIT": "%", "RESULT_NUMBER": 21.8}
{"COMPOUND": "O=C(Nc1ccccc1N1CCOCC1)c1cccnc1Cl", "MEASURE_UNIT": "%", "RESULT_NUMBER": 3.4}
{"COMPOUND": "COc1cc(OC)cc(C(=O)N2CCN(C(=O)c3cccs3)CC2)c1", "MEASURE_UNIT": "%", "RESULT_NUMBER": -11.9}

---

# TARGET_OR_SYSTEM: G-protein coupled receptor 55 (Homo sapiens) (UniProt Q9Y2T6)
# ASSAY: GPR55 antagonists blocking LPI-driven arrestin recruitment, primary screen, imaging, U2OS, beta-arrestin-GFP, LPI agonist (AID 2013);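 further: U2OS cells stably carrying GPR55 and arrestin-GFP stimulated by 5 µM LPI near EC80; imaged beta-arrestin-GFP aggregate spots per cell after agonist stimulation; plate controls were LPI-stimulated DMSO wells for no effect and DMSO wells without LPI for full effect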
# CONDITION: U2OS GPR55 beta-arrestin-GFP translocation imaging, LPI antagonism; at 10 µM; active compounds read high
The whole screen tested about 290,000 compounds, of which about 370 (0.13%) were called active. This is one part of a sample in which actives are shown more often than they occur. Results with a measured potency or affinity are listed apart.

{"COMPOUND": "COc1ccc(OC)c(-n2c(=O)c3ccccc3c3ccccc3c2=O)c1", "TARGET_OR_SYSTEM": "G-protein coupled receptor 55 (Homo sapiens) (UniProt Q9Y2T6)", "inhibition": "9.4% (inactive)"}
{"COMPOUND": "Cc1cc(C(=O)Cn2nc(C(=O)O)c3ccccc3c2=O)c(C)n1C1CC1", "TARGET_OR_SYSTEM": "G-protein coupled receptor 55 (Homo sapiens) (UniProt Q9Y2T6)", "inhibition": "3.9% (inactive)"}
{"COMPOUND": "COc1ccc(OC)c(-c2csc(NC(=O)c3ccc(OCC4CCCO4)cc3)n2)c1 (stereo not given)", "TARGET_OR_SYSTEM": "G-protein coupled receptor 55 (Homo sapiens) (UniProt Q9Y2T6)", "inhibition": "-3% (inactive)"}
{"COMPOUND": "CC(C)C(=O)Nc1ccc(N2CCN(c3ccc(F)cc3)CC2)cc1", "TARGET_OR_SYSTEM": "G-protein coupled receptor 55 (Homo sapiens) (UniProt Q9Y2T6)", "inhibition": "7.7% (inactive)"}
{"COMPOUND": "CCOc1ccccc1C1c2[nH]c3ccccc3c2C[C@H]2C(=O)N(C3CCN(Cc4ccccc4)CC3)CC(=O)N12 (stereo not given in full)", "TARGET_OR_SYSTEM": "G-protein coupled receptor 55 (Homo sapiens) (UniProt Q9Y2T6)", "inhibition": "-0.7% (inactive)"}
{"COMPOUND": "CCCCCCOC(=O)c1ccc(NC(=O)c2cc(OC)c(OC)c(OC)c2Br)cc1", "TARGET_OR_SYSTEM": "G-protein coupled receptor 55 (Homo sapiens) (UniProt Q9Y2T6)", "inhibition": "-0.3% (inactive)"}
{"COMPOUND": "Cc1csc(SCC(=O)Nc2sccc2C(N)=O)n1", "TARGET_OR_SYSTEM": "G-protein coupled receptor 55 (Homo sapiens) (UniProt Q9Y2T6)", "inhibition": "2.4% (inactive)"}
{"COMPOUND": "O=C(Nc1nc(-c2ccc(Cl)cc2Cl)cs1)c1ccc(OCC2CCCO2)cc1 (stereo not given)", "TARGET_OR_SYSTEM": "G-protein coupled receptor 55 (Homo sapiens) (UniProt Q9Y2T6)", "inhibition": "96% (active)"}
{"COMPOUND": "Cc1csc(NC(=O)c2cccc(S(=O)(=O)N3CCN(C)CC3)c2)n1", "TARGET_OR_SYSTEM": "G-protein coupled receptor 55 (Homo sapiens) (UniProt Q9Y2T6)", "inhibition": "5% (inactive)"}
{"COMPOUND": "CC(=O)c1c(O)cc(O)cc1CC(=O)O", "TARGET_OR_SYSTEM": "G-protein coupled receptor 55 (Homo sapiens) (UniProt Q9Y2T6)", "inhibition": "14.6% (inactive)"}
